Exercise: for every item that follows, state its recorded half-life.
protocol.details: Half life in human liver microsomes
Assay type: ADME, microsome
One number for each entry, in h.

Solved cases (2 shown):
line.notation: Cc1ncc(C(=O)Nc2ccc(-c3cccc(S(=O)(=O)C4CC4)c3)cn2)cn1
half-life, h: 2.41

line.notation: Cc1ncc(C(=O)Nc2ccc(-c3cccc(OC4CC4)c3)cn2)cn1
half-life, h: 2.41

--- query ---
Query: Quick check: half-life of Cc1ncc(C(=O)Nc2ccc(-c3ccsc3)cn2)cn1 ?
Response: 0.125

---

Exercise: for every item that follows, state its recorded remaining at 2 h.
protocol.details: Stability in human plasma assessed as parent compound remaining after 2 hrs relative to initial time
Assay type: ADME, cell-free
study.conditions: read-out: Stability

Solved cases (2 shown):
line.notation: Cc1ncc(C(=O)Nc2ccc(-c3cccc(S(=O)(=O)C4CC4)c3)cn2)cn1
result.type: remaining at 2 h
result: 111%
--
line.notation: Cc1ncc(C(=O)Nc2ccc(-c3cccc(OC4CC4)c3)cn2)cn1
result.type: remaining at 2 h
result: 81.1%

Parameters: items (list). Returns: remaining at 2 h for each item.
1. Cc1ncc(C(=O)Nc2ccc(-c3ccsc3)cn2)cn1
2. CC(C)[N+](C)(CCOC(=O)C1c2ccccc2Oc2ccccc21)C(C)C

Response:
1: 92.2%; 2: 5.16%

---

Exercise: for every item that follows, state its recorded remaining at 24 h.
protocol.details: Stability in human plasma assessed as parent compound remaining after 24 hrs relative to initial time
Type: ADME, cell-free
study.conditions: read-out: Stability
Dear colleague, please send the value followed by its unit.

Solved cases (2 shown):
line.notation: Cc1ncc(C(=O)Nc2ccc(-c3cccc(S(=O)(=O)C4CC4)c3)cn2)cn1
remaining at 24 h: 115%

line.notation: Cc1ncc(C(=O)Nc2ccc(-c3cccc(OC4CC4)c3)cn2)cn1
remaining at 24 h: 89.7%

Query: Quick check: remaining at 24 h of Cc1ncc(C(=O)Nc2ccc(-c3ccsc3)cn2)cn1 ?
Response: 49%

---

protocol.details: Toxicity in mouse administered as single po dose
Format: organism-based
study.conditions: in vivo
Exercise: for every item that follows, state its recorded MTD.

Parameters: items (list). Returns: MTD for each item.
1. Cc1ncc(C(=O)Nc2ccc(-c3cccc(OC4CC4)c3)cn2)cn1
2. Cc1ncc(C(=O)Nc2ccc(-c3cccc(S(=O)(=O)C4CC4)c3)cn2)cn1
3. Cc1ncc(C(=O)Nc2ccc(-c3ccsc3)cn2)cn1

Response:
1. ≤ 20 mg/kg
2. ≤ 20 mg/kg
3. ≤ 20 mg/kg

---

protocol.details: Efflux ratio of apparent intrinsic permeability in human Caco2 cells after 120 mins by mass spectrometry
Type: ADME, cell-based
study.conditions: Caco-2
result.type: efflux ratio at 2 h

Solved cases (3 shown):
molecule: CNC(=C[N+](=O)[O-])NCCSCc1ccc(CN(C)C)o1 [RANITIDINE]
efflux ratio at 2 h: 3.24
//
molecule: COC(=O)c1ccccc1-c1c2ccc(=N)cc-2oc2cc(N)ccc12.Cl [RHODAMINE123]
efflux ratio at 2 h: 11.7
//
molecule: CC(C)NCC(O)COc1cccc2ccccc12 (centres undefined) [PROPRANOLOL]
efflux ratio at 2 h: 0.99

--- query ---
Query: Quick check: efflux ratio at 2 h of Cc1ncc(C(=O)Nc2ccc(-c3cccc(S(=O)(=O)C4CC4)c3)cn2)cn1 ?
Response: 1.02
